Flag rule - melting point less than 200 °C flags rule met; the remaining entries get rule not met.

{"columns": ["MOLECULE", "CLASS NAME"],
 "data": [
  ["Cc1cc(-c2cc(C(F)(F)F)n3ncc(-c4ccnc(CO)c4)c3n2)ccc1Cl [Example 6.3]", "rule not met"],
  ["COc1ccc(-c2cc(C(F)(F)F)n3cnc(C#N)c3n2)cc1 [Example 5.5]", "rule met"],
  ["Cc1cc(-c2cnn3c(C(F)(F)F)cc(-c4ccc(Cl)cc4)nc23)ccn1 [Example 4.29]", "rule not met"],
  ["FC(F)(F)COc1cc(-c2cc(C(F)(F)F)n3ncc(-c4ccncc4)c3n2)ccc1C(F)(F)F [Example 4.50]", "rule not met"],
  ["Cc1ccccc1-c1cc(C(F)(F)F)n2cnc(C#N)c2n1 [Example 5.8]", "rule met"],
  ["Cc1cc(-c2cnn3c(C(F)(F)F)cc(-c4ccc(Cl)c(C)c4)nc23)ccn1 [Example 4.30]", "rule not met"]
]}

----------
MEASURED PARAMETER: melting point (°C)

{"columns": ["STRUCTURE SMILES STRING", "MEASURED PARAMETER", "QUANTITATIVE READOUT"],
 "data": [
  ["FC(F)(F)c1cccc(-c2cc(C(F)(F)F)n3cnc(-c4cccnc4)c3n2)c1", "melting point", 194],
  ["Cc1cc(-c2cnn3c(C(F)(F)F)cc(-c4cccc(C(F)(F)F)c4)nc23)cc(C)n1", "melting point", 236],
  ["Cc1cc(-c2cc(C(F)(F)F)n3cnc(-c4ccncc4)c3n2)ccc1Cl", "melting point", 254],
  ["Cc1cc(-c2cnn3c(C(F)(F)F)cc(-c4ccc(F)c(Cl)c4)nc23)ccn1", "melting point", 292],
  ["Cc1cc(-c2cnn3c(C(F)F)cc(-c4ccc(C(F)(F)F)c(C)c4)nc23)ccn1", "melting point", 221],
  ["FC(F)(F)c1cc(-c2ccc(Br)cc2)nc2c(-c3ccncc3)cnn12", "melting point", 289],
  ["Cc1ccc(-c2cc(C(F)(F)F)n3ncc(-c4ccncc4)c3n2)cc1C(F)(F)F", "melting point", 218],
  ["Cc1cc(-c2cnn3c(C(F)F)cc(-c4ccc(C(F)(F)F)cc4)nc23)ccn1", "melting point", 213],
  ["Cc1cc(-c2cnn3c(C(F)(F)F)cc(-c4ccc(C(F)(F)F)c(OCC(F)(F)F)c4)nc23)cc(C)n1", "melting point", 245],
  ["Fc1ccc(-c2cc(C(F)(F)F)n3ncc(-c4cccnc4)c3n2)cc1Cl", "melting point", 190],
  ["N#Cc1cnn2c(C(F)(F)F)cc(-c3ccc(F)cc3F)nc12", "melting point", 149],
  ["N#Cc1cnn2c(C(F)(F)F)cc(-c3ccc(Cl)c(Cl)c3)nc12", "melting point", 206],
  ["N#Cc1ncn2c(C(F)(F)F)cc(-c3cccc(Cl)c3)nc12", "melting point", 221],
  ["CCOc1ccc(-c2cc(C(F)(F)F)n3ncc(-c4cccnc4)c3n2)cc1C(F)(F)F", "melting point", 178],
  ["N#Cc1ncn2c(C(F)(F)F)cc(-c3cccnc3)nc12", "melting point", 222],
  ["N#Cc1cnn2c(C(F)(F)F)cc(-c3ccccc3Cl)nc12", "melting point", 169],
  ["FC(F)c1cc(-c2ccc(C(F)(F)F)cc2)nc2c(-c3ccncc3)cnn12", "melting point", 222],
  ["COc1ccc(-c2cc(C(F)(F)F)n3ncc(-c4ccncc4)c3n2)cc1", "melting point", 244],
  ["Cc1ccc(-c2cc(C(F)(F)F)n3cnc(-c4cccnc4)c3n2)cc1C(F)(F)F", "melting point", 236],
  ["FC(F)(F)COc1ccc(-c2cc(C(F)(F)F)n3cnc(-c4ccncc4)c3n2)cc1C(F)(F)F", "melting point", 269],
  ["CCOc1cc(-c2cc(C(F)(F)F)n3cnc(-c4ccncc4)c3n2)ccc1C(F)(F)F", "melting point", 212],
  ["N#Cc1ncn2c(C(F)(F)F)cc(-c3ccc(C(F)(F)F)cc3)nc12", "melting point", 236],
  ["FC(F)(F)c1cc(-c2ccc(Cl)c(Cl)c2)nc2c(-c3cccnc3)cnn12", "melting point", 224],
  ["Cc1cc(-c2cc(C(F)(F)F)n3cnc(C#N)c3n2)ccc1C(F)(F)F", "melting point", 217],
  ["Cc1cc(-c2cnn3c(C(F)(F)F)cc(-c4ccc(C)c(C(F)(F)F)c4)nc23)cc(C)n1", "melting point", 258],
  ["FC(F)(F)c1cc(-c2ccc(Cl)cc2)nc2c(-c3cccnc3)ncn12", "melting point", 206],
  ["Cc1cc(-c2ncn3c(C(F)(F)F)cc(-c4cccc(C(F)(F)F)c4)nc23)ccn1", "melting point", 234],
  ["Cc1cc(-c2ncn3c(C(F)(F)F)cc(-c4ccc(Cl)cc4)nc23)ccn1", "melting point", 232],
  ["Cc1cc(-c2cnn3c(C(F)(F)F)cc(-c4ccc(C(F)(F)F)cc4)nc23)ccn1", "melting point", 243],
  ["Cc1nn2c(C(F)(F)F)cc(-c3ccc(F)c(Cl)c3)nc2c1C#N", "melting point", 196],
  ["Fc1ccc(-c2cc(C(F)(F)F)n3cnc(-c4cccnc4)c3n2)cc1Cl", "melting point", 188],
  ["Cc1nn2c(C(F)(F)F)cc(-c3cccc(C(F)(F)F)c3)nc2c1C#N", "melting point", 215],
  ["FC(F)(F)c1ccc(-c2cc(C(F)(F)F)n3ncc(-c4cccnc4)c3n2)cc1", "melting point", 163],
  ["Cc1cc(-c2cc(C(F)(F)F)n3ncc(-c4ccncc4)c3n2)ccc1C(F)(F)F", "melting point", 227]
]}
